- testDetails: Solubility in water
- Assay type: physicochemical
- conditionDetails: water, general statement in description, temperature not given; read-out: water solubility
observedProperty: solubility

molecule	observedProperty	value
Nc1nc(=O)c2c([nH]1)NC[C@H](CNc1ccc(C(=O)N[C@@H](CCC(=O)O)C(=O)O)cc1)N2C=O [magnesium-(6S)-folinate, Magnesium-(6S)-folinate]	solubility	> 20 mg/mL

====

- testDetails: Solubility in water
- Format: physicochemical
- conditionDetails: water, at 40° C.; read-out: Solubility in water

molecule	measureUnit	solubility
Nc1nc(=O)c2c([nH]1)NC[C@H](CNc1ccc(C(=O)N[C@@H](CCC(=O)O)C(=O)O)cc1)N2C=O [calcium-(6S)-folinate, Calcium-(6S)-folinate]	mg/mL	15
